System: A-431
Experiment: Cytotoxicity against human A431 cells
Type: functional
Conditions: read-out: ED50 (the source's name)
test-readout: EC50 (µg/mL)
Give the value, in units of µg/mL, as a plain number.

Answered examples (3):
1. COc1cc2c(c(OC)c1OC)-c1cc3c(cc1[C@@H](OC(C)=O)C1COC(=O)[C@H]1C2)OCO3 (stereo partly drawn); 0.2
2. COC[C@@H]1Cc2cc3c(cc2-c2c(c(OC)cc(OC)c2OC)C[C@H]1C(=O)OC)OCO3; 6.7
3. COc1cc2c(c(OC)c1OC)-c1ccc(OC)c(=O)cc1[C@@H](NC(C)=O)CC2; 0.002

Now take the following molecule into account.
Exam item: Could you share which EC50 value was measured for COc1cc2c(c(OC)c1OC)C[C@H]1COC(=O)[C@@H]1Cc1c-2cc(OC)c(OC)c1OC [STEGANOLIDE A] ?
Marked response: 5.5

* * *

Measured log10 of EC50, listed per entry.
Tested on: SK-MEL-2
Assay: Cytotoxicity against human SK-MEL-2 cells
Format: functional
Conditions: read-out: ED50 (the source's name)
Please interpret these as log10 of EC50 where EC50 is in mg/L.

# count of solved cases: 4
1. C/C=C(/C)C(=O)O[C@H]1c2cc3c(cc2-c2c(cc(OC)c(OC)c2OC)C[C@H]2C(=O)OC[C@@H]21)OCO3; -0.15
2. COc1cc2c(c(OC)c1OC)-c1ccc(OC)c(=O)cc1[C@@H](NC(C)=O)CC2; -2.15
3. COC[C@@H]1Cc2cc3c(cc2-c2c(c(OC)cc(OC)c2OC)C[C@H]1C(=O)OC)OCO3; 1.17
4. COc1cc2c(c(OC)c1OC)C[C@H]1COC(=O)[C@@H]1Cc1c-2cc(OC)c(OC)c1OC [STEGANOLIDE A]; 0.96

Let us move to another entry and its log10 of EC50.
Exam item: log10 of EC50 lookup needed for C/C=C(/C)C(=O)O[C@@H]1c2cc3c(cc2-c2c(cc(OC)c(OC)c2OC)C[C@H]2C(=O)OC[C@H]12)OCO3 [EPISTEGANANGIN] , thanks.
Marked response: 1.30

* * *

Test system: SK-MEL-2
Test: Cytotoxicity against human SK-MEL-2 cells
Assay type: functional
Conditions: read-out: ED50 (the source's name)
test-readout: EC50

Guide cases for EC50, answers given:
1) COc1cc2c(c(OC)c1OC)-c1cc3c(cc1[C@@H](OC(C)=O)C1COC(=O)[C@H]1C2)OCO3 (stereo partly drawn); > 20 mg/L
2) COc1cc2c(c(OC)c1OC)-c1cc3c(cc1C(=O)[C@H]1COC(=O)[C@@H]1C2)OCO3; > 20 mg/L

We now examine a further molecule.
Exam item: Requested field: EC50. Item: `COC[C@@H]1Cc2cc3c(cc2-c2c(ccc(OC)c2OC)C[C@@H]1C(=O)OC)OCO3`
Marked response: > 20 mg/L
